Tested on: RPMI-8226 leukemia
Where a SMILES comes first, the peptide text is derived from it.
Possible outcomes: True = active, False = inactive

1) Clc1cc(Cl)c(Cl)c(-c2nc(-c3cccnc3)cs2)c1 | False
2) CCN(CC)CCOc1ccc(/C(=C(\C)Cc2ccc(OC)cc2)c2ccc(OC(=O)NCc3ccccc3)cc2)cc1 | False
3) COc1cc2ccc3c4c(OC)cc(OC)c(OC)c4c(=O)n(C)c3c2cc1OC | True
4) O=C(Nc1n[nH]c2nc(-c3ccco3)ccc12)C1CC1 | False
5) CC(=O)O[C@H]1C(=O)O[C@@H]2C[C@H]3C(C)=CC(=O)[C@@H](O)[C@]3(C)[C@H]3[C@@]4(O)OC[C@]32[C@@H]1[C@@H](C)[C@H]4O | True
6) COC(=O)C(C)NP(=O)(OCc1ccc(Cn2cnc3c(=O)[nH]c(N)nc32)cc1)Oc1ccccc1 (configuration not stated) | False
7) CC(C)CC(NC(=O)C(CC(C)C)NC(=O)C(Cc1cnc[nH]1)NC(=O)C(C)NC(=O)C(NC(=O)C(C)NC(=O)C(Cc1c[nH]c2ccccc12)NC(=O)C(CCC(=O)O)NC(=O)C(N)Cc1ccccc1)C(C)C)C(N)=O (configuration not stated) (H-FEWAVAHLL-NH2; configuration not given here) | False
8) COc1cc(/C=C/C(=O)c2ccc(Nc3ncnc4ccccc34)cc2)cc(OC)c1 | True
9) COc1ccc(/C(C)=C(\c2ccc(Cl)cc2)c2ccc(OCCN3CCCC3)cc2)cc1F | False
10) CCOC(=O)c1c(-c2ccccc2)[n+](=O)c2ccc(Cl)cc2n1[O-] | False
11) C=C1C(=O)O[C@H]2[C@H]1CC/C(COC(=O)CCCCCCCCC(=O)OC/C1=C/CC[C@@]3(C)O[C@H]3[C@H]3OC(=O)C(=C)[C@@H]3CC1)=C\CC[C@@]1(C)O[C@@H]21 | False
12) CN(C)CCCN(c1nc(C(Cl)(Cl)Cl)ns1)c1nc(C(Cl)(Cl)Cl)ns1 | False

###

Tested on: SF-539 CNS
method-summary: NCI tumour cell line growth inhibition, 48 h
Each item that follows carries a reported TGI.
metric-name: TGI

1) COc1ccc(CNC2=C(NC(C)=O)C(=O)c3ccccc3C2=O)cc1 | 21.9 µM
2) COC(=O)N/N=C(/CCN1CCCC1)CC(c1ccccc1)c1c(O)c2ccccc2oc1=O (stereo unspecified) | > 100 µM
3) O=C(Cn1cc(-c2ccccc2)nn1)NC1CCCC1 | > 100 µM
4) O=C1OCc2c1cc(F)cc2[N+](=O)[O-] | > 100 µM
5) CCC1=C(C)/C(=C/c2[nH]c(CBr)c(CC)c2C)N=C1CBr | 38.2 µM
6) CC(=O)CCNc1ccc(-c2cc(-c3ccc(N(C)C)cc3)nc3ccc4ccccc4c23)cc1 | > 100 µM

###

Test system: MCF7 breast
method-summary: NCI tumour cell line growth inhibition, 48 h
metric-name: TGI

1) Cc1cc2c(cc1Cl)SC(N/N=C(\N)c1ccc(Cl)cc1)=NS2(=O)=O | 64.7 µM
2) CC1(C)CC(=O)C2=C(C1)NC(SSC1=C(C#N)C(c3ccc(F)cc3)C3=C(CC(C)(C)CC3=O)N1)=C(C#N)C2c1ccc(F)cc1 (centres undefined) | 72.3 µg/mL
3) C=C1C(=O)O[C@@H]2C(=O)[C@@H](C)[C@@H]3C=CC(=O)[C@@]3(C)[C@@H](OC(=O)/C(C)=C\C)[C@H]12 | 4.93 µM
4) O=C(O)c1ccc2c(c1Nc1ccccc1)C(=O)c1ccccc1C2=O | > 100 µM
5) CCCc1cc2cc(-n3nc(C)c4c3CC(C)(C)CC4=O)cc(NC3CCC(O)CC3)c2c(=O)[nH]1 (centres undefined) | > 100 µM
6) CCOC(=O)C(NC(=O)c1ccccc1)(Nc1ccc(S(=O)(=O)Nc2nc(C)cc(C)n2)cc1)C(F)(F)F (centres undefined) | > 100 µM
7) O=S(=O)(/N=C(\NO)Nc1ccc(Cl)cc1)c1ccc(S(=O)(=O)c2ccccc2)s1 | > 100 µM
8) O=C(Cn1cc(-c2ccccc2)nn1)NC1CCCC1 | > 100 µM
9) CN(/N=C/c1cccs1)c1ccc(Cl)cc1[N+](=O)[O-] | > 100 µM
